B1: VH:VL chains; a variant is named by its letters at X, in order (parent)
chain 1: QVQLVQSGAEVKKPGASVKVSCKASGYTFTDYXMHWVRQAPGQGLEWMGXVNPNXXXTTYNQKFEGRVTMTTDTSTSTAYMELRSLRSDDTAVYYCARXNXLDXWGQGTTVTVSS
chain 2: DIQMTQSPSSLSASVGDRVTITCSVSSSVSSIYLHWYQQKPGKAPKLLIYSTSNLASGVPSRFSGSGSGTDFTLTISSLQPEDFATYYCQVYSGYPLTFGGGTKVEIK

Variants of: B1
test_method_notes: yeast display scFab, FACS + sequencing
value_kind: non-specific binding call

Example entries begin here.
INSERT INTO measurements (mutation_notation, value_kind, measured) VALUES
  ('DKEGGAVV', 'non-specific binding call', 'no binding'),
  ('SEARSSWS', 'non-specific binding call', 'no binding'),
  ('DKGEGDLA', 'non-specific binding call', 'no binding'),
  ('YGRRGFSV', 'non-specific binding call', 'binds'),
  ('DKEGGDAV', 'non-specific binding call', 'no binding');

Sure, the documented non-specific binding call for "SRKGGDAA" is no binding

The reported non-specific binding call of the variant "YKGKSAWD" was binds

Lab note: measured non-specific binding call of "FRRGGSGV" was binds

Reported non-specific binding call ( "YRARGAGV" ) = binds

# non-specific binding call (variant: "FRGRDFGS" ) is binds

These entries and their values trace back to the emibetuzumab library of Makowski et al. (2022).
